Hey, just so you know, these numbers are from PubChem BioAssay AID248.

- Tested on: L1210 leukemia ip in BDF1 mice, survival T/C
- assayInfo: NCI In Vivo Anticancer Drug Screen. Data for tumor model L1210 Leukemia (intraperitoneal) in B6D2F1 (BDF1) mice
- cond: endpoint: mean survival time; dose: 200.0 mg/kg/injection; schedule: Q04DX003 (ip); vehicle: Klucel (hydroxypropylcellulose) (HPC); higher = longer survival
Toxic doses and inconclusive results are not listed.
measurementLabel: T/C

Prompt line: May I ask what T/C has been recorded for CCCCCCCCOc1ccc(C(=O)c2ccccc2)c(O)c1 ?
Response line: 96 % of control

Prompt line: # iterate: COC(=O)Nc1nc2ccc(Br)cc2[nH]1
Response line: 96 % of control

Prompt line: # iterate: CN(C)C(=S)Oc1cc(Cl)c(Cl)cc1Cl
Response line: 95 % of control

Prompt line: # iterate: C/C(CCC(=O)O)=N\NC(=O)COc1ccc(Cl)cc1Cl
Response line: 98 % of control

Prompt line: # iterate: CC1(C)C=C(C(Br)c2cccc(Cl)c2)C(=O)c2ccccc21 (configuration not stated)
Response line: 106 % of control

Prompt line: # iterate: CC(C)c1cccc(C(C)C)c1OC(=O)Nc1ccccc1Cl
Response line: 102 % of control

Prompt line: # iterate: CSCCC(NC(=O)c1ccccc1)C(=O)O (configuration not stated)
Response line: 92 % of control

---

- Test system: L1210 leukemia ip in BDF1 mice, survival T/C
- assayInfo: NCI In Vivo Anticancer Drug Screen. Data for tumor model L1210 Leukemia (intraperitoneal) in B6D2F1 (BDF1) mice
- cond: endpoint: mean survival time; dose: 25.0 mg/kg/injection; schedule: Q04DX002 (ip); vehicle: saline; higher = longer survival
Toxic doses and inconclusive results are not listed.
measurementLabel: T/C

Prompt line: May I ask what T/C has been recorded for NC(CCl)=NCc1cccnc1 ?
Response line: 108 % of control

Prompt line: # iterate: Nc1ccccn1
Response line: 89 % of control

Prompt line: # iterate: NC(CCl)=NC1CC1
Response line: 106 % of control

Prompt line: # iterate: O=C(CCCc1ccc(N(CCCl)CCCl)cc1)OCCc1ccccc1
Response line: 111 % of control

Prompt line: # iterate: NC(CCl)=NCCOC12CC3CC(CC(C3)C1)C2
Response line: 94 % of control

Prompt line: # iterate: Cc1ccc(C2C(C(=O)N3CCN(C)CC3)C2c2ccccc2)cc1 (configuration not stated)
Response line: 98 % of control

Prompt line: # iterate: C=C1C(=O)OC2C1CCC1(C)CCCC(=C)C21O (configuration not stated)
Response line: 105 % of control

---

Consider the following compounds; for each one, report its T/C.
- System: L1210 leukemia ip in BDF1 mice, survival T/C
- assayInfo: NCI In Vivo Anticancer Drug Screen. Data for tumor model L1210 Leukemia (intraperitoneal) in B6D2F1 (BDF1) mice
- cond: endpoint: mean survival time; dose: 10.0 mg/kg/injection; schedule: Q01DX001 (ip); vehicle: saline; higher = longer survival
Inconclusive results and toxic doses are left out.

Prompt line: Find the measured T/C: item CCC(=O)C(c1ccccc1)(c1ccccc1)C(C)CN(C)C (centres undefined) , target or system L1210 leukemia ip in BDF1 mice, survival T/C.
Response line: 104 % of control

Prompt line: # iterate: CC1(C)N=C(N)N=C(N)N1c1cccc(CCCCc2ccccc2)c1
Response line: 92 % of control

Prompt line: # iterate: Cc1cc2oc(=O)c(Cl)c(Cl)c2c(C)c1Cl
Response line: 105 % of control

Prompt line: # iterate: CCOP(=O)(SCC)N(CC)CC (centres undefined)
Response line: 104 % of control

---

Consider the following compounds; for each one, report its T/C.
- Tested on: L1210 leukemia ip in BDF1 mice, survival T/C
- assayInfo: NCI In Vivo Anticancer Drug Screen. Data for tumor model L1210 Leukemia (intraperitoneal) in B6D2F1 (BDF1) mice
- cond: endpoint: mean survival time; dose: 25.0 mg/kg/injection; schedule: Q01DX009 (ip); vehicle: saline; higher = longer survival
Inconclusive results and toxic doses are left out.

Prompt line: May I ask what T/C has been recorded for Cc1ccc(S(=O)(=O)/C=C\S(=O)(=O)c2ccc(C)cc2)cc1 ?
Response line: 105 % of control

Prompt line: # iterate: Nc1nc(N)c2nc(CBr)cnc2n1
Response line: 115 % of control

Prompt line: # iterate: COC(=O)C1(N)CCCC1
Response line: 107 % of control

Prompt line: # iterate: Cc1cccc(C)c1NC(=S)N(C)C
Response line: 101 % of control

Prompt line: # iterate: OCCOCCN1CCN(CCCN2c3ccccc3Sc3ccc(C(F)(F)F)cc32)CC1
Response line: 103 % of control

Prompt line: # iterate: CC(NC(=O)c1ccccc1)C(=O)NC(CSC(c1ccccc1)c1ccccc1)C(=O)O (stereo not drawn)
Response line: 102 % of control

Prompt line: # iterate: CC1C[N-]CC(C)C1.CC1C[N-]CC(C)C1.[Cl][Pt+2]([Cl])([Cl])[Cl] (stereo not drawn)
Response line: 102 % of control

Prompt line: # iterate: CCCCCCCCCCCCCC[N+](C)(C)CCCCCCCCCCCCCC
Response line: 106 % of control

Prompt line: # iterate: CN(C)Cc1ccc([N+](=O)[O-])cc1
Response line: 93 % of control

Prompt line: # iterate: O=C(NCCBr)C(F)(F)F
Response line: 113 % of control

Prompt line: # iterate: COc1c(OC2OC(CO)C(O)C(O)C2O)cc2c(c1OC)-c1ccc(SC)c(=O)cc1C(NC(C)=O)CC2 (stereo not drawn)
Response line: 101 % of control

Prompt line: # iterate: Br/C=C/C[N+]12CN3CN(CN(C3)C1)C2
Response line: 101 % of control

Prompt line: # iterate: O=C1Nc2c(Cl)cccc2C1=O
Response line: 92 % of control

---

- Test system: L1210 leukemia ip in BDF1 mice, survival T/C
- assayInfo: NCI In Vivo Anticancer Drug Screen. Data for tumor model L1210 Leukemia (intraperitoneal) in B6D2F1 (BDF1) mice
- cond: endpoint: mean survival time; dose: 100.0 mg/kg/injection; schedule: Q01DX009 (ip); vehicle: saline with Tween-80; higher = longer survival
Inconclusive results and toxic doses are left out.
Consider the following molecules; for each one, report its T/C.

Prompt line: May I ask what T/C has been recorded for CS(=O)(=O)OCCN(CCOS(C)(=O)=O)c1ccc(/C=N/Nc2ccc([N+](=O)[O-])cc2[N+](=O)[O-])cc1 ?
Response line: 96 % of control

Prompt line: # iterate: CC(=O)N1C(=O)N(Cl)C(=O)C1(c1ccc(Cl)cc1)c1ccc(Cl)cc1
Response line: 108 % of control

Prompt line: # iterate: CCOC(=O)CNC(=O)OCCN1CCNC1=S
Response line: 98 % of control

Prompt line: # iterate: CCN(C(C)(C)C(SSSC(c1ccc(Cl)cc1)C(C)(C)N(CC)S(C)(=O)=O)c1ccc(Cl)cc1)S(C)(=O)=O (stereo not drawn)
Response line: 91 % of control

Prompt line: # iterate: CC(=O)Nc1ccc(/C=N/NC(=O)CNC(=O)NCc2ccccc2)cc1
Response line: 89 % of control

Prompt line: # iterate: Cc1c2c(cc3c1[nH]c1ccccc13)C(c1ccc(Cl)cc1)=NCC2
Response line: 87 % of control

Prompt line: # iterate: COc1ccc(/C=N\NC(=O)CNC(=O)Nc2cccc([N+](=O)[O-])c2)cc1O
Response line: 100 % of control

Prompt line: # iterate: COC(OC)c1nc(SC)[nH]c(=O)c1C[N+](C)(C)C
Response line: 102 % of control

Prompt line: # iterate: COc1ccc(C(C)c2ccccc2)cc1C(C)c1ccccc1 (stereo not drawn)
Response line: 93 % of control

Prompt line: # iterate: Cc1nnc(N)s1
Response line: 95 % of control

Prompt line: # iterate: COc1ccc(/C=N/NC(=O)c2ccc(Cl)cc2)cc1
Response line: 105 % of control

Prompt line: # iterate: IC12CC3CC(CC(C3)C1)C2
Response line: 93 % of control

Prompt line: # iterate: CN(C)C(=S)SCCC(N)C(=O)O (stereo not drawn)
Response line: 101 % of control

---

- Tested on: L1210 leukemia ip in BDF1 mice, survival T/C
- assayInfo: NCI In Vivo Anticancer Drug Screen. Data for tumor model L1210 Leukemia (intraperitoneal) in B6D2F1 (BDF1) mice
- cond: endpoint: mean survival time; dose: 25.0 mg/kg/injection; schedule: Q01DX009 (ip); vehicle: saline with Tween-80; higher = longer survival
- Protocol: The antitumor activity of compounds was measured in mice bearing transplantable tumors. Survival or tumor size were measured and the results are expressed as the measurement made in the treated group (T) divided by the measurement made in the vehicle treated control group (C). The tumor model used in this assay is L1210 Leukemia (intraperitoneal) in B6D2F1 (BDF1) mice
Toxic doses and inconclusive results are not listed.
Consider the following molecules; for each one, report its T/C.

Prompt line: Find the measured T/C: item O=S(=O)(OCC#CCOS(=O)(=O)c1ccc(Cl)c(Cl)c1)c1ccc(Cl)c(Cl)c1 , target or system L1210 leukemia ip in BDF1 mice, survival T/C.
Response line: 90 % of control

Prompt line: # iterate: O=[N+]([O-])c1cccc2c1CCCC2
Response line: 93 % of control

Prompt line: # iterate: NC1CC[N-]CC1.NC1CC[N-]CC1.NC1CC[N-]CC1.NC1CC[N-]CC1.[Cl][Rh][Cl]
Response line: 104 % of control

Prompt line: # iterate: O=[N+]([O-])/C=C/c1ccccc1Cl
Response line: 101 % of control

Prompt line: # iterate: CCCCC(I)C(C)(C)[n+]1ccccc1 (stereo unspecified)
Response line: 106 % of control

Prompt line: # iterate: O=C(O)C1Cc2ccccc2CN1 (stereo unspecified)
Response line: 95 % of control
